Here, each record is paired with measured GI50 data.
tested on: MOLT-4 leukemia; assay: NCI tumour cell line growth inhibition, 48 h
Recorded metric: GI50

Smiles record | Recorded metric | Meas value
CC#C/C(=N\OC[C@H]1COCCN1)c1ccc2ncnc(Nc3ccc(OCc4cccc(F)c4)c(Cl)c3)c2c1 | GI50 | 1800 nM
COc1cc(/C=C/c2cc(/C=C/c3ccc(O)c(OC)c3)nc(N)n2)ccc1O | GI50 | 1010 nM
COc1ccc(-c2nc(C(=O)c3ccccc3)n(CC(=O)c3ccccc3)c2-c2ccc(OC)cc2)cc1 | GI50 | > 100000 nM
Cc1cc(Nc2c3ccccc3nc3ccccc23)ccc1NS(C)(=O)=O | GI50 | 3280 nM
